The measured values listed here are drawn from patent US20250214991A1.

Dmax overview
# ASSAY TARGET: IKZF1 (Homo sapiens (Human), UniProt Q13422+Q96SW2)
# Sequence (Q13422 whole entry, one chain of several): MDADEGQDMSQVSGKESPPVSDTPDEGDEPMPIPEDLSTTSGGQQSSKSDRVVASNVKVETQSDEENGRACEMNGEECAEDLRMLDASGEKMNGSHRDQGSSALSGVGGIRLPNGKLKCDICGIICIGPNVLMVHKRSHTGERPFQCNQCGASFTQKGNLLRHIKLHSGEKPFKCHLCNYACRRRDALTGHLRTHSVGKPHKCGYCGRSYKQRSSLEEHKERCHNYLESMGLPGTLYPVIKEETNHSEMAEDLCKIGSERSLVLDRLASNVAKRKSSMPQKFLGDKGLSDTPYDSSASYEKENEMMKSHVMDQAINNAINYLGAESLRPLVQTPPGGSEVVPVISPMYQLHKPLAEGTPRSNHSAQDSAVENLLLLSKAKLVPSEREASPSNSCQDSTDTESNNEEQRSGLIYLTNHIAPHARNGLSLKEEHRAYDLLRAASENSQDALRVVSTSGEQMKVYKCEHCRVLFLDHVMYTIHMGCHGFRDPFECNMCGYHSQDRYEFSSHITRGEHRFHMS
# ASSAY SUMMARY: In vitro IKZF1 HiBit Assay (HEK293T Flp-in-HiBiT-IKZF1 stable cell line)
# Assay type: cell-based
# CONDITION DESCRIPTION: HEK-293T; HEK293T Flp-in-HiBiT-IKZF1 stable cell line, 6 hrs incubation; read-out: IKZF1 HiBit Dmax (%)

O=C1CCC(N2Cc3c(ccc(-c4cc(CN5CCCC5)c5ccn(C6CS(=O)(=O)C6)c5n4)c3F)C2=O)C(=O)N1 (centres unmarked) ... 20 to 40%
O=C1CCC(N2Cc3c(ccc(-c4cc(CN5CC6COCC6C5)c5ccn(C6CS(=O)(=O)C6)c5n4)c3F)C2=O)C(=O)N1 (centres unmarked) ... 20 to 40%
Nc1n[nH]c2c(CN3CC(F)C3)cc(-c3ccc4c(c3)CN(C3CCC(=O)NC3=O)C4=O)nc12 (centres unmarked) ... < 20%

[in] Entry under review: Cn1ccc2c(CN3CCC(n4cccn4)CC3)cc(-c3ccc4c(c3)CN(C3CCC(=O)NC3=O)C4=O)nc21 (centres unmarked) . Reported Dmax?
[out] < 20%

[in] Moving on to O=C1CCC(N2Cc3cc(-c4cc(CN5CCCC5)c5nccc(N6CCC6)c5n4)ccc3C2=O)C(=O)N1 (centres unmarked)
[out] 20 to 40%

[in] Moving on to COCC1CCCN1Cc1cc(-c2ccc3c(c2)CN(C2CCC(=O)NC2=O)C3=O)nc2c1ccn2C (centres unmarked)
[out] < 20%

[in] Moving on to O=C1CCC(N2Cc3c(ccc(-c4cc(CN5CCCC5)c5cc[nH]c5n4)c3F)C2=O)C(=O)N1 (centres unmarked)
[out] 40 to 60%

[in] Moving on to Cn1ccc2nc(-c3ccc4c(c3)CN(C3CCC(=O)NC3=O)C4=O)cc(CN3CCCC3)c21 (centres unmarked)
[out] 20 to 40%

* * *

# ASSAY TARGET: IKZF1 (Homo sapiens (Human), UniProt Q13422+Q96SW2)
# ASSAY SUMMARY: In vitro IKZF1 HiBit Assay (HEK293T Flp-in-HiBiT-IKZF1 stable cell line)
# Assay type: cell-based
# CONDITION DESCRIPTION: HEK293T Flp-in-HiBiT-IKZF1 stable cell line, 6 hrs incubation; read-out: IKZF1 HiBit DC50
OBSERVABLE: DC50

Worked cases, answers included:
CC(C)Nc1n[nH]c2c(CN3CC4(CCOCC4)C3)cc(-c3ccc4c(c3F)CN(C3CCC(=O)NC3=O)C4=O)nc12 (stereo not drawn) ... 0.01 to 0.1 µM
O=C1CCC(N2Cc3cc(-c4cc(CN5CCCC5)c5c(n4)C(=O)NC5)ccc3C2=O)C(=O)N1 (stereo not drawn) ... > 10 µM
Cn1ccc2c(CN3CC4COCC4C3)cc(-c3ccc4c(c3)CN(C3CCC(=O)NC3=O)C4=O)nc21 (stereo not drawn) ... > 10 µM
CN(C)c1ccnc2c(CN3CCCC3)cc(-c3ccc4c(c3)CN(C3CCC(=O)NC3=O)C4=O)nc12 (stereo not drawn) ... 0.001 to 0.01 µM
CC(C)Nc1n[nH]c2c(CN3CCCC3)cc(-c3ccc4c(c3)CN(C3(C)CCC(=O)NC3=O)C4=O)nc12 (stereo not drawn) ... > 10 µM

# next molecule below
[in] Entry under review: O=C1CCC(N2Cc3cc(-c4cc(CN5CCCC5)c5nccc(OC(F)F)c5n4)ccc3C2=O)C(=O)N1 (stereo not drawn) . Reported DC50?
[out] > 10 µM

* * *

DC50 overview
# ASSAY TARGET: IKZF1 (Homo sapiens (Human), UniProt Q13422+Q96SW2)
# ASSAY SUMMARY: In vitro IKZF1 HiBit Assay (HEK293T Flp-in-HiBiT-IKZF1 stable cell line)
# Type: cell-based
# CONDITION DESCRIPTION: HEK293T Flp-in-HiBiT-IKZF1 stable cell line, 6 hrs incubation; read-out: IKZF1 HiBit DC50

Worked cases, answers included:
Cn1cc(-n2ccc3c(CN4CCCC4)cc(-c4ccc5c(c4)CN(C4CCC(=O)NC4=O)C5=O)nc32)cn1 (centres unmarked) [Example 248] ... 100 to 1000 nM
O=C1CCC(N2Cc3cc(-c4cc(CN5CCCC5)c5ncn(C6CS(=O)(=O)C6)c5n4)ccc3C2=O)C(=O)N1 (centres unmarked) [Example 225] ... > 10000 nM
O=C1CCC(N2Cc3cc(-c4cc(CN5CC(CO)C5)c5ccn(C6CC6)c5n4)ccc3C2=O)C(=O)N1 (centres unmarked) [Example 152] ... 100 to 1000 nM
Cn1ccc2c(CN3CCSCC3)cc(-c3ccc4c(c3)CN(C3CCC(=O)NC3=O)C4=O)nc21 (centres unmarked) [Example 62] ... > 10000 nM

[in] Entry under review: O=C1CCC(N2Cc3cc(-c4cc(CN5CCCC5)c5c(n4)CCCC5)ccc3C2=O)C(=O)N1 (centres unmarked) [Example 79] . Reported DC50?
[out] > 10000 nM

[in] Moving on to Cn1ccc2c(CN3CCCC3)cc(-c3cc4c(cc3Cl)C(=O)N(C3CCC(=O)NC3=O)C4)nc21 (centres unmarked) [Example 83]
[out] > 10000 nM

[in] Moving on to O=C1CCC(N2Cc3cc(-c4cc(CN5CC6COCC6C5)c5ccn(C6COC6)c5n4)ccc3C2=O)C(=O)N1 (centres unmarked) [Example 186]
[out] > 10000 nM

[in] Moving on to O=C1CCC(N2Cc3cc(-c4cc(CN5CCC5)c5[nH]ccc5n4)ccc3C2=O)C(=O)N1 (centres unmarked) [Example 156]
[out] 10 to 100 nM

* * *

# ASSAY TARGET: IKZF1 (Homo sapiens (Human), UniProt Q13422+Q96SW2)
# ASSAY SUMMARY: In vitro IKZF1 HiBit Assay (HEK293T Flp-in-HiBiT-IKZF1 stable cell line)
# Format: cell-based
# CONDITION DESCRIPTION: HEK293T Flp-in-HiBiT-IKZF1 stable cell line, 6 hrs incubation; read-out: IKZF1 HiBit DC50
# Procedure: In Vitro IKZF1 HiBit Assay […] 25 nL of diluted compound is transferred to assay plates (Corning3571) using ECHO550, the final DMSO concentration @ 0.1%. […] The amount of Nano-Glo® HiBiT lytic reagent needed to perform the desired experiments is calculated. […] After briefly centrifuge, the plateis read on Envision. […] The extent of degradation (range of luminescence) from the highest to lowest concentration points was calculated to determine the Dmax. […]
DC50 overview

Worked cases, answers included:
CC(C)CC1CCN(Cc2cc(-c3ccc4c(c3)CN(C3CCC(=O)NC3=O)C4=O)nc3[nH]ccc23)C1 (centres unmarked) ... 10 to 100 nM
O=C1CCC(N2Cc3cc(-c4cc(CN5CCC(CO)CC5)c5ccn(C6COC6)c5n4)ccc3C2=O)C(=O)N1 (centres unmarked) ... 100 to 1000 nM
O=C1CCC(N2Cc3cc(-c4cc(CN5CCCC5)c5[nH]nc(NC6COC6)c5n4)ccc3C2=O)C(=O)N1 (centres unmarked) ... > 10000 nM
CN(C)C(=O)C1CCN(Cc2cc(-c3ccc4c(c3)CN(C3CCC(=O)NC3=O)C4=O)nc3c2ccn3C)CC1 (centres unmarked) ... > 10000 nM
Cc1nc2nc(-c3ccc4c(c3)CN(C3CCC(=O)NC3=O)C4=O)cc(CN3CCCC3)c2o1 (centres unmarked) ... > 10000 nM

[in] Entry under review: O=C1CCC(N2Cc3cc(-c4cc(CN5CCC(F)C5)c5cc[nH]c5n4)ccc3C2=O)C(=O)N1 (centres unmarked) . Reported DC50?
[out] 100 to 1000 nM

[in] Moving on to Cn1ccc2c(CN3CCC(n4ccnc4)CC3)cc(-c3ccc4c(c3)CN(C3CCC(=O)NC3=O)C4=O)nc21 (centres unmarked)
[out] > 10000 nM

[in] Moving on to Cn1ccc2c(CN3CCC4(CCCC4)CC3)cc(-c3ccc4c(c3)CN(C3CCC(=O)NC3=O)C4=O)nc21 (centres unmarked)
[out] 10 to 100 nM

* * *

# ASSAY TARGET: CRBN/DDB1 (Homo sapiens (Human))
# Sequence (Q96SW2 whole entry, species assumed): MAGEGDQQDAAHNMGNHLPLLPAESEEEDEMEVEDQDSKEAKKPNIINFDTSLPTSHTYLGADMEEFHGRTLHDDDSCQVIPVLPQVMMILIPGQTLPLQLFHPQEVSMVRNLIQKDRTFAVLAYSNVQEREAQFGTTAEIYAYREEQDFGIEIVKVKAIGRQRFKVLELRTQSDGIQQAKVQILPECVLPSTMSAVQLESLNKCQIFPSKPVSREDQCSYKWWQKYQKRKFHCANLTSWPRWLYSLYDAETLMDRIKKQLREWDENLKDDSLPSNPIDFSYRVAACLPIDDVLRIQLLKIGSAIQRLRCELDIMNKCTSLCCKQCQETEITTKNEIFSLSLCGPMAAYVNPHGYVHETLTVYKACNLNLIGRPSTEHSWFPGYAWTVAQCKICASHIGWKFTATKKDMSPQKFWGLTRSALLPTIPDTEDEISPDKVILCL
# Sequence (Q16531 whole entry partner, species assumed): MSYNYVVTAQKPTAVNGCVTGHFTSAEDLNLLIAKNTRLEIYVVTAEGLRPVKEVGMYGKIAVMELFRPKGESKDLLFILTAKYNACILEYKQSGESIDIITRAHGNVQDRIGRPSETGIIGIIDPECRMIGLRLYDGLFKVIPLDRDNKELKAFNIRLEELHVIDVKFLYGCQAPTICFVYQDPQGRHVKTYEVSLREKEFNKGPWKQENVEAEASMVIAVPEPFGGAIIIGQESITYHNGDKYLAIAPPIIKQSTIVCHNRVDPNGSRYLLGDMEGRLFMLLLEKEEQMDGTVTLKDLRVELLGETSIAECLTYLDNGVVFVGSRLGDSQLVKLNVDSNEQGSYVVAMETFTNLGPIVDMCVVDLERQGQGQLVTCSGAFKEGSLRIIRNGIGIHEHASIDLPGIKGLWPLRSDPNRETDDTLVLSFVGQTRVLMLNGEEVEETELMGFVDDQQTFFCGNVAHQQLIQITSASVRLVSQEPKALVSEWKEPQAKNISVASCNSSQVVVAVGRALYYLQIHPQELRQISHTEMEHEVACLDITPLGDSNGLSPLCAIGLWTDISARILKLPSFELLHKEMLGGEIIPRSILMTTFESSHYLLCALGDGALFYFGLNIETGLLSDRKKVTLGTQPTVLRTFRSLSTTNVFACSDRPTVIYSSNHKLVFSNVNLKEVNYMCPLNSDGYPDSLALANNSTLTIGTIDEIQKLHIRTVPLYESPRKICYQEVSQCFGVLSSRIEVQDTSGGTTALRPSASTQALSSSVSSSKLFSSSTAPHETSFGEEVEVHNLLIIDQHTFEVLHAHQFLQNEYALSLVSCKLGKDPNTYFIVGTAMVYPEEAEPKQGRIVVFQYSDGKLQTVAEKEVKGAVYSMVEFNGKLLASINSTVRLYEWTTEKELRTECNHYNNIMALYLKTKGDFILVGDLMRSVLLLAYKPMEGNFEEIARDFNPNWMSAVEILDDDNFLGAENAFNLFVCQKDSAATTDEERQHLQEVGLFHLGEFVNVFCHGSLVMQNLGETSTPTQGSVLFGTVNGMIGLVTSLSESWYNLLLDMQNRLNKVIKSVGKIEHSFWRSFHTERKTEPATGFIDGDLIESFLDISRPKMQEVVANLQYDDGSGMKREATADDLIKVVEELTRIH
# ASSAY SUMMARY: IC50 measurements for binding to CRBN/DDB1 (HTRF)
# CONDITION DESCRIPTION: His tagged CRBN+DDB, Cy5-labeled Thalidomide probe, one hour
pIC50: −log10 of the molar value.
OBSERVABLE: pIC50

Worked cases, answers included:
O=C1CCC(N2Cc3cc(-c4cc(CN5CCC6(CC5)CC6)cc5cncn45)ccc3C2=O)C(=O)N1 (centres unmarked) ... 5.30 to 6.00
COC1CN(Cc2cc(-c3ccc4c(c3)CN(C3CCC(=O)NC3=O)C4=O)nc3c2ccn3C)C1 (centres unmarked) ... 6.30 to 7.00
CC(C)Nc1n[nH]c2c(CN3CCCC3)cc(-c3ccc4c(c3)CN(C3CCC(=O)NC3=O)C4=O)nc12 (centres unmarked) ... 5.30 to 6.00

[in] Entry under review: Cn1ccc2c(CN3CCS(=O)(=O)CC3)cc(-c3ccc4c(c3)CN(C3CCC(=O)NC3=O)C4=O)nc21 (centres unmarked) . Reported pIC50?
[out] 5.30 to 6.00

[in] Moving on to O=C1CCC(N2Cc3cc(-c4cc(CN5CCCC5)c5cc[nH]c5n4)c(F)cc3C2=O)C(=O)N1 (centres unmarked)
[out] 5.30 to 6.00
